Quick reference for melting point among some compounds

O=C(Oc1c(Cl)cc(Cl)c(Cl)c1Cl)c1ccc(CCl)cc1 = 143 to 149 °C
COc1ccccc1NS(=O)(=O)c1cccc(C=CC(=O)NO)c1 = 181 °C
CC(C)c1ncc(CCCOc2nn(Cc3ccccc3)cc2CC(=O)O)c(Oc2ccc(Cl)cc2Cl)n1 = 98 to 99 °C
Cc1ccc(N2C(=O)NC(=O)C23CCNCC3)cc1 = 128 to 130 °C

Now examine the next entry.
Given the compound C[C@H]1C(=O)NC2CCC(=O)N21 (stereo partly specified) , what is its reported melting point?
84 to 86 °C

----------
Measured melting point by item

Worked examples follow.
c1ccc2c(c1)Sc1ccccc1N2C1CN2CCC1CC2 (stereo not given) = 160 to 162 °C
COc1cc(OCc2oc(=O)oc2C)c(C(=O)CCc2ccc3occc3c2)cc1C1OC(CO)C(O)C(O)C1O (stereo not given) = 128 °C
CCn1ncc2c(NCC3CCCCC3)c3cc(S(C)=O)ccc3nc21 (stereo not given) = 186 to 187 °C

Need melting point, item C=Cc1ccc(NS(C)(=O)=O)c(F)c1
82 °C

Recorded melting point of N#Cc1ccc(C(=O)[C@H]2C[C@H]2C(=O)O)cc1 (relative stereo) , please.
180 to 182 °C

melting point lookup needed for NS(=O)(=O)c1cc(C(=O)O)cc(OCc2ccsc2)c1-c1ccccc1 , thanks.
222 to 223 °C

For the compound CC(C)(SC(F)(F)F)C(=O)C(Oc1ccc(Cl)cc1)n1cncn1 (stereo not given) , what melting point is on record?
66 °C

The origin of these recorded values is a melting point compilation (Tetko et al.; mined from patent text by program, amines drawn as free bases though some values may be those of a salt).
